Target: Prp43 (Saccharomyces cerevisiae, UniProt P53131, F357A)
Test: ITC
observable: Kd

Enter reported Kd observed with Prp43 (Saccharomyces cerevisiae, UniProt P53131, F357A) for Nc1ncnc2c1ncn2[C@@H]1O[C@H](COP(=O)(O)OP(=O)(O)O)[C@@H](O)[C@H]1O [ADP]
> 45 µM
